Below, each entry is listed with its recorded protein stability index.
B1: FAM189A2 (parent)
chain: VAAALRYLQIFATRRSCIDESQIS

# Variants of: B1
# assay: protein stability index of a GFP-peptide fusion (GPS, HEK-293T) (PSI 1-6); higher = more stable;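 further: lentivirally expressed fusions sorted by FACS into six bins by GFP to DsRed ratio, PSI derived from sequencing read proportions per bin multiplied by bin number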
# condition_label: c terminus: a fixed tail appended

Solved cases (4 shown):
variant_string: Y7N
protein stability index: 1.98
//
variant_string: S21P
protein stability index: 1.97
//
variant_string: A2M
protein stability index: 1.99
//
variant_string: D19E
protein stability index: 2.01

Query :: Returns the measured protein stability index for the input variant. Input: A2W
Result :: 3.06

Query :: Same read-out for S21T ?
Result :: 2.03
